# Test system: UACC-257
# Experiment: NCI 60 cell line panel screen (SRB)
# Format: cell-based, human
# Run Parameters: UACC-257 (Melanoma); TGI: PG=0
Property Label: Log10TGI50 (log10M)
# number only, unit log10M dropped from output

>  <Molecule>
CC1CCC2C(C)C(CC(O)(CC3OC4OC5(C)CCC6C(C)CCC(C3C)C46OO5)CS(=O)(=O)c3ccc(C(=O)O)cc3)OC3OC4(C)CCC1C32OO4 (centres unmarked) [Compound 10c]

>  <Property Label>
Log10TGI50

>  <Scale Unit>
log10M

>  <Observed>
−4.38

$$$$

So, CC1CCC2C(C)C(CC(COC(=O)c3cc[n+]([O-])cc3)CC3OC4OC5(C)CCC6C(C)CCC(C3C)C46OO5)OC3OC4(C)CCC1C32OO4 (centres unmarked) ? Its Log10TGI50 was −4.65

---

# Tested on: 60 cell line panel
# Type: cell-based
# Run Parameters: 60 cell line panel
Property Label: Log10TGI50 Range
Reply with the value as a number alone.

Some solved entries appear below for comparison.
>  <Molecule>
C[C@@H]1CC[C@H]2[C@@H](C)C(CC(O)(COC(=O)CCC(=O)O)CC3OC4O[C@]5(C)CC[C@H]6[C@H](C)CC[C@@H]([C@H]3C)C46OO5)OC3O[C@]4(C)CCC1C32OO4 (some centres unmarked) [Compound 9, tertiary alcohol primary succinate ester]

>  <System>
60 cell line panel

>  <Property Label>
Log10TGI50 Range

>  <Observed>
4.00

$$$$
>  <Molecule>
C[C@@H]1CC[C@H]2[C@@H](C)C(=O)O[C@@H]3O[C@]4(C)CC[C@@H]1[C@]32OO4

>  <System>
60 cell line panel

>  <Property Label>
Log10TGI50 Range

>  <Observed>
0.06

$$$$
>  <Molecule>
CC1CCC2C(C)C(CC(COC(=O)c3cc[n+]([O-])cc3)CC3OC4OC5(C)CCC6C(C)CCC(C3C)C46OO5)OC3OC4(C)CCC1C32OO4 (centres unmarked)

>  <System>
60 cell line panel

>  <Property Label>
Log10TGI50 Range

>  <Observed>
4.00

$$$$
>  <Molecule>
CC1CCC2C(C)C(CC(COC(=O)CCC(=O)O)CC3OC4OC5(C)CCC6C(C)CCC(C3C)C46OO5)OC3OC4(C)CCC1C32OO4 (centres unmarked) [Compound 8a, bis-trioxane primary succinate monoester]

>  <System>
60 cell line panel

>  <Property Label>
Log10TGI50 Range

>  <Observed>
4.00

$$$$

// below: Log10TGI50 Range requested for another molecule
The measured Log10TGI50 Range associated with CC1CCC2C(C)C(CC(O)(CC3OC4OC5(C)CCC6C(C)CCC(C3C)C46OO5)CS(=O)(=O)c3ccc(C(=O)O)cc3)OC3OC4(C)CCC1C32OO4 (centres unmarked) [Compound 10c] reads 4.00

---

Catalogue of Log10LC50 readings, one per entry.
# Test system: SK-OV-3
# Experiment: NCI 60 cell line panel screen (SRB)
# Type: cell-based, human
# Run Parameters: SK-OV-3 (Ovarian Cancer); LC50: PG=−50
// units = log10M; emit number, no label

Previously resolved entries follow.
>  <Molecule>
CC1CCC2C(C)C(CC(CO)CC3OC4OC5(C)CCC6C(C)CCC(C3C)C46OO5)OC3OC4(C)CCC1C32OO4 (stereo not drawn)

>  <System>
SK-OV-3

>  <Observed>
−4.21

$$$$
>  <Molecule>
CC1CCC2C(C)C(CC(COC(=O)c3cc[n+]([O-])cc3)CC3OC4OC5(C)CCC6C(C)CCC(C3C)C46OO5)OC3OC4(C)CCC1C32OO4 (stereo not drawn)

>  <System>
SK-OV-3

>  <Observed>
−4.31

$$$$

API: the following record is the query input.
Looking up CC1CCC2C(C)C(CC(O)(CC3OC4OC5(C)CCC6C(C)CCC(C3C)C46OO5)CS(=O)(=O)c3ccc(C(=O)O)cc3)OC3OC4(C)CCC1C32OO4 (stereo not drawn) [Compound 10c] , I found its Log10LC50 recorded as −4.47
